# target.desc: Genome polyprotein (Dengue virus type 2 (strain 16681-PDK53))
# test.name: flavivirus RNA guanylyltransferase activity inhibition – biochemical, secondary assay, dose response (AID 623863)
# condition.context: Dengue-2 NS5 guanylylation inhibition
endpoint.name: IC50

q: Enter reported IC50 observed with Genome polyprotein (Dengue virus type 2 (strain 16681-PDK53)) for O=C(O)CSc1cc(NS(=O)(=O)c2cccc([N+](=O)[O-])c2)c2ccccc2c1O
a: 3.33 µM

q: Under Genome polyprotein (Dengue virus type 2 (strain 16681-PDK53)): IC50 value of O=C(O)CSc1cc(NS(=O)(=O)c2ccc(Cl)cc2)c2ccccc2c1O ?
a: 7.89 µM

q: # value lookup — system Genome polyprotein (Dengue virus type 2 (strain 16681-PDK53)), readout IC50, item O=[N+]([O-])c1cccc(S(=O)(=O)Nc2cc(SCc3ccccc3)c(O)c3ccccc23)c1
a: 3.03 µM

q: Notebook: pull reported IC50 for Genome polyprotein (Dengue virus type 2 (strain 16681-PDK53)), entry O=[N+]([O-])c1cccc(S(=O)(=O)Nc2cc(Sc3nc4ccccc4s3)c(O)c3ccccc23)c1
a: 18.3 µM

q: I'm curious: which IC50 was measured for O=C(O)CSc1cc(NS(=O)(=O)c2ccc(Br)cc2)c2ccccc2c1O tested on Genome polyprotein (Dengue virus type 2 (strain 16681-PDK53))?
a: 2.37 µM

q: Param readout = IC50; param system = Genome polyprotein (Dengue virus type 2 (strain 16681-PDK53)); param query = Cn1c(=O)c2[nH]c(-c3ccc(Cl)cc3)c(O)c2n(C)c1=O ; response: value
a: 7.51 µM

q: Lookup: IC50 / Genome polyprotein (Dengue virus type 2 (strain 16681-PDK53)) / Cc1ccc(S(=O)(=O)Nc2cc(Sc3nc(C)cc(C)n3)c(O)c3ccccc23)cc1
a: 46 µM

q: Request body: readout IC50, system Genome polyprotein (Dengue virus type 2 (strain 16681-PDK53)), query O=S(=O)(Nc1cc(SCc2ccccc2)c(O)c2ccccc12)c1ccc(Cl)cc1 . Return the value.
a: 4.23 µM

q: Find IC50 (Genome polyprotein (Dengue virus type 2 (strain 16681-PDK53))) for the entry O=S(=O)(Nc1cc(Sc2ccccc2)c(O)c2ccccc12)c1ccc(F)cc1
a: 47.9 µM

====

# target.desc: Genome polyprotein (Dengue virus type 2 (strain 16681-PDK53))
# test.name: flavivirus RNA guanylyltransferase activity inhibition – biochemical, secondary assay, dose response (AID 623863)
# condition.context: Dengue-2 NS5 guanylylation inhibition, at 50 µM (top of the series)
The source made the active and inactive calls. How the calls were made is not given here.
endpoint.name: inhibition

// below: answered molecules
structure_as_smiles=Cc1ccc(S(=O)(=O)Nc2cc(SCC(=O)O)c(O)c3ccccc23)cc1 endpoint_name=inhibition data_value=inactive
structure_as_smiles=Cc1cc(C)c(S(=O)(=O)Nc2cc(SCC(=O)O)c(O)c3ccccc23)c(C)c1 endpoint_name=inhibition data_value=inactive
structure_as_smiles=Cc1cc(F)ccc1S(=O)(=O)Nc1cc(SCC(=O)O)c(O)c2ccccc12 endpoint_name=inhibition data_value=inactive
structure_as_smiles=O=C(O)CSc1cc(NS(=O)(=O)c2ccc(F)cc2)c2ccccc2c1O endpoint_name=inhibition data_value=inactive

q: I have this molecule here, O=S(=O)(Nc1cc(Sc2ncn[nH]2)c(O)c2ccccc12)c1ccc(F)cc1 , and I need its recorded inhibition.
a: inactive
